STUDY_SYSTEM: human synovial fluid PLA2 (Homo sapiens)
Construct: Purified human synovial fluid PLA2; tissue R. C; Franson (Medical College of Virginia, Richmond, Va.); host or cells: human synovial fluid
Sequence (P14555 21-144): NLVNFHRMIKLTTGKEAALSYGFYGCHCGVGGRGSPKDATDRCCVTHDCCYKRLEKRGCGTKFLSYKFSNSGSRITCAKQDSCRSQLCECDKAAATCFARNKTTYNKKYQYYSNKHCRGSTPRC
ASSAY_SUMMARY: Millimolar Calcium-Dependent PLA2 Assay (human synovial fluid PLA2, [14C]-oleate labeled E. coli substrate)
Type: biochemical
MEASUREMENT_SETUP: human synovial fluid; pH 7.0, 5 mM CaCl2, 30 min at 37° C.; ">>" = little or no inhibition at highest concentration used; read-out: IC50 HSF PLA2
pIC50: −log10 of the molar value.

COMPOUND: CCCCCCCCCCCC#Cc1cccc(C=C(P(=O)(O)O)P(=O)(O)O)c1 [Example 2]
LT_GT_EQ: =
pIC50: 4.51
--
COMPOUND: CCCCCCCCCCCC#Cc1ccccc1/C=C(\C(=O)OCC)P(=O)(O)O [Example 6]
LT_GT_EQ: =
pIC50: 4.80
--
COMPOUND: CCCCCCCCCCCC#Cc1ccccc1/C=C(\C(=O)OCC)P(=O)(OCC)OCC [Example 5]
LT_GT_EQ: <
pIC50: 4.00
--
COMPOUND: CCCCCCCCCCCC#Cc1cccc(C=C(P(=O)(OCC)OCC)P(=O)(OCC)OCC)c1 [Example 1]
LT_GT_EQ: <
pIC50: 4.00
--
COMPOUND: CCCCCCCCCCCC#Cc1ccccc1C=C(P(=O)(OCC)OCC)P(=O)(OCC)OCC [Example 9]
LT_GT_EQ: <
pIC50: 4.00
--
COMPOUND: CCCCCCCCCCCC#Cc1ccccc1C=C(P(=O)(O)O)P(=O)(O)O [Example 10]
LT_GT_EQ: =
pIC50: 4.30

* * *

The following molecules are listed with their measured IC50 values.
STUDY_SYSTEM: porcine pancreatic PLA2 (Sus scrofa)
Construct: Purified porcine pancreatic PLA2 was obtained from Sigma; purchased Sigma (St. Louis, Mo.); host or cells: porcine pancreas
Sequence (P00592 23-146): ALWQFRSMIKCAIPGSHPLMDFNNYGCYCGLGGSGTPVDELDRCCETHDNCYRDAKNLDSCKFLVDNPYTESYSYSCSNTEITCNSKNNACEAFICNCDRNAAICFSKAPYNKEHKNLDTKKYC
ASSAY_SUMMARY: Millimolar Calcium-Dependent PLA2 Assay (porcine pancreatic PLA2, [14C]-oleate labeled E. coli substrate)
Format: biochemical
MEASUREMENT_SETUP: pH 8.0, 10 mM CaCl2, 5 min at 37° C.; ">>" = little or no inhibition at highest concentration used; read-out: IC50 Porcine Pancreatic PLA2

MOLECULE: CCCCCCCCCCCC#Cc1cccc(C=C(P(=O)(OCC)OCC)P(=O)(OCC)OCC)c1 [Example 1]
STUDY_SYSTEM: porcine pancreatic PLA2 (Sus scrofa)
LT_GT_EQ: =
IC50 (µM): 100
//
MOLECULE: CCCCCCCCCCCC#Cc1ccccc1/C=C(\C(=O)OCC)P(=O)(O)O [Example 6]
STUDY_SYSTEM: porcine pancreatic PLA2 (Sus scrofa)
LT_GT_EQ: =
IC50 (µM): 2.5
//
MOLECULE: CCCCCCCCCCCC#Cc1ccccc1/C=C(\C(=O)OCC)P(=O)(OCC)OCC [Example 5]
STUDY_SYSTEM: porcine pancreatic PLA2 (Sus scrofa)
LT_GT_EQ: >
IC50 (µM): 100

* * *

Tested on: purified calcium-independent canine myocardial PLA2
ASSAY_SUMMARY: Calcium-Independent PLA2 Assay (purified canine myocardial cytosolic PLA2, release of radiolabeled oleic acid)
Format: biochemical
MEASUREMENT_SETUP: pH 7.0, 6.4 mM EGTA, 1 μM substrate, 5 min at 37° C., read-out: IC50 Canine Heart PLA2

COMPOUND: CCCCCCCCCCCC#Cc1ccccc1/C=C(\C(=O)OCC)P(=O)(OCC)OCC
LT_GT_EQ: =
IC50, nM: 340
--
COMPOUND: CCCCCCCCCCCC#Cc1ccccc1C=C(P(=O)(O)O)P(=O)(O)O [Example 11]
LT_GT_EQ: =
IC50, nM: 1900
--
COMPOUND: CCCCCCCCCCCC#Cc1cccc(C=C(P(=O)(O)O)P(=O)(O)O)c1 [Example 2]
LT_GT_EQ: =
IC50, nM: 450
--
COMPOUND: CCCCCCCCCCCC#Cc1ccccc1/C=C/P(=O)(OCC)OCC
LT_GT_EQ: =
IC50, nM: 3000
--
COMPOUND: CCCCCCCCCCCC#Cc1ccccc1C=C(P(=O)(OCC)OCC)P(=O)(OCC)OCC
LT_GT_EQ: =
IC50, nM: 1500
--
COMPOUND: CCCCCCCCCCCC#Cc1ccccc1C=C(P(=O)(O)O)P(=O)(O)O [Example 10]
LT_GT_EQ: =
IC50, nM: 710
--
COMPOUND: CCCCCCCCCCCC#Cc1ccccc1/C=C/P(=O)(O)O
LT_GT_EQ: =
IC50, nM: 4500
--
COMPOUND: CCCCCCCCCCCC#Cc1cccc(C=C(P(=O)(OCC)OCC)P(=O)(OCC)OCC)c1
LT_GT_EQ: =
IC50, nM: 560
--
COMPOUND: CCCCCCCCCCCC#Cc1cccc(C=C(P(=O)(O)O)P(=O)(O)O)c1 [Example 3]
LT_GT_EQ: =
IC50, nM: 360
--
COMPOUND: CCCCCCCCC(=O)NCC#Cc1ccccc1C=C(P(=O)(OCC)OCC)P(=O)(OCC)OCC
LT_GT_EQ: >
IC50, nM: 100000
--
COMPOUND: CCCCCCCCCCCC#Cc1cccc(P(=O)(OCC)OCC)c1
LT_GT_EQ: =
IC50, nM: 360
